The values you see were collected from ChEMBL document CHEMBL4428107.

- target: Histone deacetylase 2 (Homo sapiens)
- Sequence (Q92769 whole entry): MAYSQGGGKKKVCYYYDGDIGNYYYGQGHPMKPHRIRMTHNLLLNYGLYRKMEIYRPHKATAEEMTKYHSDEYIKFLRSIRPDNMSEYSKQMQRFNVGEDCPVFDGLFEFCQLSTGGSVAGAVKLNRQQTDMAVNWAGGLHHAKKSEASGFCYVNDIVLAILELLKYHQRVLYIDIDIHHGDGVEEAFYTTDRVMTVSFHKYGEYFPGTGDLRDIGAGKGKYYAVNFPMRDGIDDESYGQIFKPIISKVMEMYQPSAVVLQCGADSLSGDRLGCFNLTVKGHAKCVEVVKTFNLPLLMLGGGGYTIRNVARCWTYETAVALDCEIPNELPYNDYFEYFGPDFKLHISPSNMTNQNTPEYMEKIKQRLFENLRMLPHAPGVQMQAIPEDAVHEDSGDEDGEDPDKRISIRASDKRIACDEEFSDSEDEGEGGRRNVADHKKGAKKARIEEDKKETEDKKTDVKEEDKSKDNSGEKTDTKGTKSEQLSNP
- assay name: Inhibition of full length recombinant human HDAC2 expressed in baculovirus expression system using fluorogenic peptide RHKK(Ac) as substrate by fluorescence assay
pIC50: −log10 of the molar value.
quantity kind: pIC50

Enquiry: What measured pIC50 goes with "C#CCOC(=O)NCCCC(=O)NCCc1ccccc1" ?
Return: < 6.00

Enquiry: What measured pIC50 goes with "CCOC(=S)NCCCC(=O)NCCc1ccccc1" ?
Return: < 6.00

Enquiry: What measured pIC50 goes with "O=C(CCCNC(=O)OCCF)NCCc1ccccc1" ?
Return: < 6.00

Enquiry: What measured pIC50 goes with "CCOC(=O)NCCCC(=O)NCCC(C)C" ?
Return: < 6.00

Enquiry: What measured pIC50 goes with "COC(=O)NCCCC(=O)NCCc1ccccc1" ?
Return: < 6.00

Enquiry: What measured pIC50 goes with "CCOC(=O)NCCCC(=O)Nc1nc(-c2cccc([N+](=O)[O-])c2)cs1" ?
Return: < 6.00

Enquiry: What measured pIC50 goes with "CCOC(=O)NCCCCC(=O)NCc1ccccc1" ?
Return: < 6.00

====

Overview of reported pIC50 across a group of molecules:
- target: Histone deacetylase 8 (Homo sapiens)
- Sequence (Q9BY41 whole entry): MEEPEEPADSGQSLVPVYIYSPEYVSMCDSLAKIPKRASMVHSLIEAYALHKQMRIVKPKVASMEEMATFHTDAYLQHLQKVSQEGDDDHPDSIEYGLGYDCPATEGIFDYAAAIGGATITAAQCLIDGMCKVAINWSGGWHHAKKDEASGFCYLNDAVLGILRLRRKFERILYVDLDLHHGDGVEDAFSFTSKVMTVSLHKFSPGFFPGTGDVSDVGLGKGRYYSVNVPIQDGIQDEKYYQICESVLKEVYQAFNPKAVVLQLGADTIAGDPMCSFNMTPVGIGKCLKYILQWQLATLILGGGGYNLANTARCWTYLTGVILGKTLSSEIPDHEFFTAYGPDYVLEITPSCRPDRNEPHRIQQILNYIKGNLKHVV
- assay name: Inhibition of recombinant full length C-terminal His-tagged human HDAC8 expressed in baculovirus expression system using fluorogenic substrate by fluorescence assay
pIC50: −log10 of the molar value.

Enquiry: What reported pIC50 corresponds to "CCOC(=O)NCCCC(=O)NCCc1ccccc1" on Histone deacetylase 8 (Homo sapiens)?
Return: 5.00 to 5.30

Enquiry: What reported pIC50 corresponds to "O=C(CCCC(=O)NCCc1ccccc1)NO" on Histone deacetylase 8 (Homo sapiens)?
Return: 5.00 to 5.30

====

- target: Histone deacetylase 4 (Homo sapiens, UniProt P56524)
- Sequence (P56524 whole entry, the tested form may be a part): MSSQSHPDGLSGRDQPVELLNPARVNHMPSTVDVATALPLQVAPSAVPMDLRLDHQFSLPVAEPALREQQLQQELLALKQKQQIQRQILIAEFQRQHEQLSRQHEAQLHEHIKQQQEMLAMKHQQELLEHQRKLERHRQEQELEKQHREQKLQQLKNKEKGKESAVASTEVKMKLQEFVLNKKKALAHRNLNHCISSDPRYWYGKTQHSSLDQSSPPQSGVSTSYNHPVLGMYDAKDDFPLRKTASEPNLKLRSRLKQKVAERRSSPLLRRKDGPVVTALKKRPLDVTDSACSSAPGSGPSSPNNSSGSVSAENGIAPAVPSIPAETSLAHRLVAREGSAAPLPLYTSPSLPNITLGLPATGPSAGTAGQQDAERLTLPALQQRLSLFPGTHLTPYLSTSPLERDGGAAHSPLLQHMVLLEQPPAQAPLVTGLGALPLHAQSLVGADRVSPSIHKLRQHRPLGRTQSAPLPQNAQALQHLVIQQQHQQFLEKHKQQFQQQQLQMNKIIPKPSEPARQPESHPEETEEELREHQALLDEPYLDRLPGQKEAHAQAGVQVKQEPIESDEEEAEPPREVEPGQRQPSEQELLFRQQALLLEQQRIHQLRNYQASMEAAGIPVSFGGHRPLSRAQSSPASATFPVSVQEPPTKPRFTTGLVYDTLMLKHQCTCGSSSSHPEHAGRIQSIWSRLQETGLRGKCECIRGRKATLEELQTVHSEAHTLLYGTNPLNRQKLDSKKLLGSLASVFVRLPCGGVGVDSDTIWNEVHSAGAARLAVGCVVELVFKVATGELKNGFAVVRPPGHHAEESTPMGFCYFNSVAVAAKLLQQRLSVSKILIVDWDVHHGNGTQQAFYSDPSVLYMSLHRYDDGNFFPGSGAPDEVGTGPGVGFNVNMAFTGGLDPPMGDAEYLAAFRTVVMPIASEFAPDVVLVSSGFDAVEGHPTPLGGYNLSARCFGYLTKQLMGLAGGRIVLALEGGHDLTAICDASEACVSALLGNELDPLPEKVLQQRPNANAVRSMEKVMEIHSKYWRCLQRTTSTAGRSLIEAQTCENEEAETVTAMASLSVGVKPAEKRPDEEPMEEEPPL
- assay name: Inhibition of recombinant C-terminal His-tagged/N-terminal GST-tagged human HDAC4 (627 to 1084 residues) expressed in baculovirus expression system using fluorogenic substrate by fluorescence assay
quantity kind: IC50

Enquiry: What reported IC50 corresponds to "CCOC(=O)NCCCC(=O)NCCc1ccccc1" on Histone deacetylase 4 (Homo sapiens, UniProt P56524)?
Return: 5 to 10 µM

Enquiry: What reported IC50 corresponds to "O=C(CCCC(=O)NCCc1ccccc1)NO" on Histone deacetylase 4 (Homo sapiens, UniProt P56524)?
Return: 5 to 10 µM

====

- Tested on: MCF7
- assay name: Antiproliferative activity against human MCF7 cells assessed as reduction in cell viability after 72 hrs by MTS-PMS assay
- conditions: MCF7, 72 h
quantity kind: GI50

Reference set, count: 2
| smiles notation | target | quantity kind | result |
| --- | --- | --- | --- |
| C#CCOC(=O)NCCCC(=O)NCCc1ccccc1 | MCF7 | GI50 | > 50 µM |
| CC(=O)SCCC(=O)NCCCC(=O)NCCc1ccccc1 | MCF7 | GI50 | > 50 µM |

Enquiry: What measured GI50 goes with "CCC(=O)NCCCC(=O)NCCc1ccccc1" ?
Return: > 50 µM

====

- target: Histone deacetylase 9 (Homo sapiens, UniProt Q9UKV0)
- Sequence (Q9UKV0 whole entry, the tested form may be a part): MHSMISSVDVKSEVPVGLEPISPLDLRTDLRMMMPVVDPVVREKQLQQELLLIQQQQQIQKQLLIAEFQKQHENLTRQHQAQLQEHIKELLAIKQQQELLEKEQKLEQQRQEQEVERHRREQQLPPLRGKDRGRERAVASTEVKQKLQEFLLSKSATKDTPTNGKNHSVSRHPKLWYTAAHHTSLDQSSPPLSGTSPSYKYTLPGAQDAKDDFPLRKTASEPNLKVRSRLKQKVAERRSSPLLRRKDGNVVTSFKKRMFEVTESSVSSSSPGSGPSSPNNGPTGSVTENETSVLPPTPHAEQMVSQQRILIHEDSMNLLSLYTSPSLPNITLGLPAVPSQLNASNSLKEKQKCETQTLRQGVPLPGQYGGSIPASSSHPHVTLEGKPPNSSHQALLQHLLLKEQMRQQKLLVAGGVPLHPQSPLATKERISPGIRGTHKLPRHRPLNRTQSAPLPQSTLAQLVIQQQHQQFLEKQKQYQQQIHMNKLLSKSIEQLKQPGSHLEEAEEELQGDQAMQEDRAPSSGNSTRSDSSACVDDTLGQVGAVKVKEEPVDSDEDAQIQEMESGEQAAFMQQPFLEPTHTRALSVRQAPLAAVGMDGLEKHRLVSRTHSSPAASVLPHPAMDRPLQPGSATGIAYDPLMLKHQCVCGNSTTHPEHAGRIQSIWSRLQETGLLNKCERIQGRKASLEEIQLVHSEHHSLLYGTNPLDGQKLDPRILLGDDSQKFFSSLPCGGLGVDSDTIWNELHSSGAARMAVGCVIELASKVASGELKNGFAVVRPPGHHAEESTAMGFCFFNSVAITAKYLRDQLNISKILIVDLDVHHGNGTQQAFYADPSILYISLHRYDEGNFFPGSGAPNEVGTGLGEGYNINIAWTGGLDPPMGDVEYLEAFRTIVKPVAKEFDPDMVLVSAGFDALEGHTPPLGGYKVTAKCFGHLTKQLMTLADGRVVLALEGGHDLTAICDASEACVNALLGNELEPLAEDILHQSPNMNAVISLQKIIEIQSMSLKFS
- assay name: Inhibition of recombinant C-terminal His-tagged human HDAC9 (604 to 1066 residues) expressed in baculovirus expression system using fluorogenic substrate by fluorescence assay
pIC50: −log10 of the molar value.
Overview of reported pIC50 across a group of molecules:

| smiles notation | pIC50 |
| --- | --- |
| CCOC(=O)NCCCC(=O)NCCc1ccccc1 | 5.00 to 5.30 |

# context switch: different molecule, same pIC50
Enquiry: What reported pIC50 corresponds to "O=C(CCCC(=O)NCCc1ccccc1)NO" on Histone deacetylase 9 (Homo sapiens, UniProt Q9UKV0)?
Return: 5.00 to 5.30
